Tested on: SARS-COV2
test_name: microbe, parasite or virus in culture
Type: cell-based
run_conditions: Severe acute respiratory syndrome coronavirus 2, Vero C1008, 48 h, read-out: IC50 for E gene
endpoint_name: pIC50
In simple prose, pIC50 is minus the logarithm base ten of a concentration in moles per litre.

Lookup: Note down pIC50 recorded for CCC(CC)COC(=O)[C@H](C)N[P@](=O)(OC[C@H]1O[C@@](C#N)(c2ccc3c(N)ncnn23)[C@H](O)[C@@H]1O)Oc1ccccc1 [Remdesivir]
Found: 6.82
